- target under test: TREK-1 channel (Rattus norvegicus, UniProt Q920B6)
- Construct: expressed in transfected cells; host or cells: COS7 (Korean Cell Line Bank), transient transfection with Effectene
- protocol summary: Assay for TREK channel inhibition activity (whole cell patch clamp recording, COS7 cell transfected with GFP-rTREK-1)
- Format: cell-based
- measurement conditions: Table 3 (value ± spread); 100 μM; COS7 cells, GFP-rTREK-1, whole-cell patch clamp
- Protocol: The inhibition activity of the compound of the present invention against TREK-1 channel was measured by measuring the physiological activity by whole cell patch clamp recording. COS7 cell (obtained from Korean Cell Line Bank (KCLB)) was transfected with GFP-rTREK-1 gene (accession number: AY727922) using an Effectene transfection reagent (Qiagen), and cultured for 24 hours in an incubator at 37° C. […]
// class 0 strictly below 50% in block % at 100 μM; class 1 otherwise

>>> cat("Cc1ccc(CNC(=O)CN2CCN(C[C@H](O)COc3ccc(C(F)(F)F)cc3)CC2)cc1")
"class 1"
>>> cat("O=C(CN1CCN(C[C@H](O)COc2ccc(C(F)(F)F)cc2)CC1)NC1CCCCC1")
"class 1"
>>> cat("C=C[C@H]1C[N@@]2CC[C@H]1C[C@@H]2[C@@H](O)c1ccnc2ccc(OC)cc12 [quinidine, reference compound]")
"class 0"
>>> cat("CC(C)Cc1cc(CNC(=O)CN2CCN(C[C@@H](O)COc3ccc(C(F)(F)F)cc3)CC2)nn1-c1ccccc1")
"class 1"
>>> cat("Cc1ccc(OC[C@@H](O)CN2CCN(Cc3c(F)cccc3Cl)CC2)cc1")
"class 1"

* * *

Listing of entries alongside the reported inhibition at 10 µM.
- target under test: TREK-1 channel (Rattus norvegicus, UniProt Q920B6)
- Construct: expressed in transfected cells; host or cells: COS7 (Korean Cell Line Bank), transient transfection with Effectene
- Sequence (Q920B6 1-426): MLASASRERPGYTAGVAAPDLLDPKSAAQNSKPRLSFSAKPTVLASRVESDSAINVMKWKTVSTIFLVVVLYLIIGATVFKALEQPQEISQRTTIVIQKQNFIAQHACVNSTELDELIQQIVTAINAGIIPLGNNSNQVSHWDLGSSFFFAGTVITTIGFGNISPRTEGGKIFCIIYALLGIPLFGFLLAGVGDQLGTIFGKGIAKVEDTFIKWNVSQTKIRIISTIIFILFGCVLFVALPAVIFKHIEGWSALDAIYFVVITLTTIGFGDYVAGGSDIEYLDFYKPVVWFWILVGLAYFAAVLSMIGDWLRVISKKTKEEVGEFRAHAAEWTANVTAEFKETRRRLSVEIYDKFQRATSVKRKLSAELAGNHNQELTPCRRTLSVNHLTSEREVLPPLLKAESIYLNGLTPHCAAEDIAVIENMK
- protocol summary: Assay for TREK channel inhibition activity (whole cell patch clamp recording, COS7 cell transfected with GFP-rTREK-1)
- Type: cell-based
- measurement conditions: COS-7, Table 2; 10 μM; COS7 cells, GFP-rTREK-1, whole-cell patch clamp; read-out: block % at 10 μM
readout label: inhibition at 10 µM (%)

>>> measured_value("Cc1ccc(OC[C@H](O)CN2CCN(CC(=O)NCc3ccc(C(F)(F)F)cc3)CC2)cc1 [KKRE10200]")
30.9
>>> measured_value("O=C(CN1CCN(C[C@H](O)COc2ccccc2)CC1)NCc1ccccc1 [KKRE10203]")
38
>>> measured_value("Cc1ccc(CNC(=O)CN2CCN(C[C@@H](O)COc3ccccc3)CC2)cc1 [KKRE10204]")
57.5
>>> measured_value("CC(C)Cc1cc(CNC(=O)CN2CCN(C[C@@H](O)COc3ccc(F)cc3)CC2)nn1-c1ccccc1 [KKRE10213]")
64.7
>>> measured_value("Cc1ccc(OC[C@@H](O)CN2CCN(CC(=O)NCc3ccc(C(F)(F)F)cc3)CC2)cc1 [KKRE10201]")
25.4
>>> measured_value("Cc1ccc(CNC(=O)CN2CCN(C[C@H](O)COc3ccc(C(F)(F)F)cc3)CC2)cc1 [KKRE10174]")
37.6
>>> measured_value("Cc1ccc(OC[C@@H](O)CN2CCN(Cc3c(F)cccc3Cl)CC2)cc1 [KKRE10138]")
13
>>> measured_value("O=C(CN1CCN(C[C@H](O)COc2ccc(C(F)(F)F)cc2)CC1)NC1CCCCC1 [KKRE10175]")
18.1
>>> measured_value("Cc1ccc(CNC(=O)CN2CCN(C[C@H](O)COc3ccccc3)CC2)cc1 [KKRE10205]")
26.4
>>> measured_value("O[C@@H](COc1ccc(C(F)(F)F)cc1)CN1CCN(Cc2nccn2Cc2ccccc2)CC1 [KKRE10153]")
52.1
>>> measured_value("COc1cccc(C2CCN(C[C@@H](O)COc3ccc(F)cc3)CC2)c1 [KKRE10162]")
52.5
>>> measured_value("O=C(CN1CCN(C[C@@H](O)COc2ccc(C(F)(F)F)cc2)CC1)Nc1ccc(F)cc1 [KKRE10145]")
35.2
>>> measured_value("O=C(CN1CCN(C[C@H](O)COc2ccc(C(F)(F)F)cc2)CC1)NCc1ccc(C(F)(F)F)cc1 [KKRE10173]")
63.2
>>> measured_value("O=C(CN1CCN(C[C@H](O)COc2ccccc2)CC1)NCc1ccc(C(F)(F)F)cc1 [KKRE10207]")
53
>>> measured_value("C=C[C@H]1C[N@@]2CC[C@H]1C[C@H]2[C@H](O)c1ccnc2ccc(OC)cc12 [quinine, reference compound]")
17
>>> measured_value("Cc1ccc(CNC(=O)CN2CCN(C[C@@H](O)COc3ccc(C)cc3)CC2)cc1 [KKRE10198]")
29.9
>>> measured_value("CC[C@H]1CN2CC[C@H]1C[C@H]2[C@H](O)c1ccnc2ccc(OC)cc12 [hydroquinine, reference compound]")
19.8

* * *

Listing of entries alongside the reported inhibition.
- target under test: α1G T-type calcium channel (Homo sapiens, UniProt O43497)
- Sequence (O43497 whole entry): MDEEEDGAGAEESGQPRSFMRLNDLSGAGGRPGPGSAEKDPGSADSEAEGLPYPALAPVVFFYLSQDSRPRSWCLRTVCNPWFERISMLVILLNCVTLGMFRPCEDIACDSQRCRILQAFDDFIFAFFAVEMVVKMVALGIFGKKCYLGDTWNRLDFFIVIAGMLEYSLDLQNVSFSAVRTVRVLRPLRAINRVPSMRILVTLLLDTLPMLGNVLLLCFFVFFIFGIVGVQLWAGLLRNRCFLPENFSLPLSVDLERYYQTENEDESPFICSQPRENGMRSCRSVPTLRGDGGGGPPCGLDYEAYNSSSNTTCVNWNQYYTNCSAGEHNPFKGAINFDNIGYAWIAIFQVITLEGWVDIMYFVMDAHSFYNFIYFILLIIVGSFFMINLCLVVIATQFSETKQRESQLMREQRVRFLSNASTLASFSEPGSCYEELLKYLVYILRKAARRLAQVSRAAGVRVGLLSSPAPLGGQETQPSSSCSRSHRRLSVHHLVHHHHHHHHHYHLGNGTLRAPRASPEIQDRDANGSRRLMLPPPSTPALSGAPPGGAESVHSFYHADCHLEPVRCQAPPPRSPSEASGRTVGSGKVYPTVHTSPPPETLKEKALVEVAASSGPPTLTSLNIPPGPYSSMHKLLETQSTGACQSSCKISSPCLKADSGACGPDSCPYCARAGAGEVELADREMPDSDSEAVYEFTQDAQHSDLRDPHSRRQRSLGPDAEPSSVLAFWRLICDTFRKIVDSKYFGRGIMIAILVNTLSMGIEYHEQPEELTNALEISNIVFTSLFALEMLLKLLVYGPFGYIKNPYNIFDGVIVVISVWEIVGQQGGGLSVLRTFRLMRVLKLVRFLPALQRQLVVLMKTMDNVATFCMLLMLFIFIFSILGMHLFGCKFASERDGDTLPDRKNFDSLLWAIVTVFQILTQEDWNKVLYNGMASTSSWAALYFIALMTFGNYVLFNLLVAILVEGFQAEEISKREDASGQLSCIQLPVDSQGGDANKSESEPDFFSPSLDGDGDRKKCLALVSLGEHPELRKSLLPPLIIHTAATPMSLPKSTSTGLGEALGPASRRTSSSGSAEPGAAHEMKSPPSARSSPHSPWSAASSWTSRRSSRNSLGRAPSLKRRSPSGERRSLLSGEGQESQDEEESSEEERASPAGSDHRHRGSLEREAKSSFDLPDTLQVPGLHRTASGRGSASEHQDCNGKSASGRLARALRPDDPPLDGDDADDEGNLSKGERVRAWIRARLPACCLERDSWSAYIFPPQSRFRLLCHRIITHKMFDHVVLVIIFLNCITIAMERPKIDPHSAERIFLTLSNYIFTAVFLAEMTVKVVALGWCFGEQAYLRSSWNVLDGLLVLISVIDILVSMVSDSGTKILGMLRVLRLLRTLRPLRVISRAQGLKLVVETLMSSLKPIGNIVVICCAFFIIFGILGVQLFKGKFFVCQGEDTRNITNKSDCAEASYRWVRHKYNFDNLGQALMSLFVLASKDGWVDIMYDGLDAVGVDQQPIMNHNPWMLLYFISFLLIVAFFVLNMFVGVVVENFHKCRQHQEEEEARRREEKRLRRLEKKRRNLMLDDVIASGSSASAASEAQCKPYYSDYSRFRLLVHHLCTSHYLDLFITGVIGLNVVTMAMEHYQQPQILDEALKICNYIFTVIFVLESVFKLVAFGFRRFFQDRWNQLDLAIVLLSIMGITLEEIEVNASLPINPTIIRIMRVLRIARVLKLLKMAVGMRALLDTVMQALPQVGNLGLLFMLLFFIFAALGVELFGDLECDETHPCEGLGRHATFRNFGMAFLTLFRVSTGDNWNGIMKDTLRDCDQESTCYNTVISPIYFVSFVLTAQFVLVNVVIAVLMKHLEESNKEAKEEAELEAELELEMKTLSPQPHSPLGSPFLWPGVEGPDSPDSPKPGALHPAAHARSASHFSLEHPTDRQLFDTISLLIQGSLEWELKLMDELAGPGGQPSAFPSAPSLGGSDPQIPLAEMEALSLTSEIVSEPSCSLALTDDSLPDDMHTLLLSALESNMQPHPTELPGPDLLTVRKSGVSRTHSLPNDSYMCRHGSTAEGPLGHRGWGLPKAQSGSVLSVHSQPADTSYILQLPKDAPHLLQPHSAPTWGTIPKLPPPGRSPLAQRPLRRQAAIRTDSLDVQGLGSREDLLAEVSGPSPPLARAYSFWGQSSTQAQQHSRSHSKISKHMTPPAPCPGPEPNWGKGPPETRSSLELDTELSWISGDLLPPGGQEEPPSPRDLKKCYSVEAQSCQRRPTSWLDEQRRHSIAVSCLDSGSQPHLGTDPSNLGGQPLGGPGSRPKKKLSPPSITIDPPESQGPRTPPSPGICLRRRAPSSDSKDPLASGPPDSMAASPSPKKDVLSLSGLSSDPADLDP
- protocol summary: Assay for T-type calcium channel inhibition activity (FDSS6000 calcium imaging, KCl activation)
- Assay type: cell-based
- measurement conditions: 75 s pre-treatment then KCl 75 mM, HEK293 cells expressing α1G T-type calcium channel and Kir2.1
- Protocol: At 12-24 hours before the assay for T-type calcium channel activity, cells of HEK293 cell line (α1G cell line: KCTC 10519BP, GenBank, Korea Research Institute of Bioscience and Biotechnology) which stably express α1G T-type calcium channel and Kir2.1, were sub-cultured in a poly-L-lysine (0.05 mg/ml) treated 96-well plate with the density of 4×10^4 per a well using a 96-well cell dispenser (Titertek). […]
readout label: inhibition (%)

>>> measured_value("O[C@H](COc1ccc(C(F)(F)F)cc1)CN1CCC(N2CCCCC2)CC1")
5.73
>>> measured_value("O=C(CN1CCN(C[C@H](O)COc2ccccc2)CC1)NCc1ccccc1")
17
>>> measured_value("O[C@@H](COc1ccc(F)cc1)CN1CCC(N2CCCC2)CC1")
0.31
>>> measured_value("CC(C)Cc1cc(CNC(=O)CN2CCN(C[C@@H](O)COc3ccc(F)cc3)CC2)nn1-c1ccc(F)cc1")
78.8
>>> measured_value("Cc1ccc(CNC(=O)CN2CCN(C[C@@H](O)COc3ccccc3)CC2)cc1")
12.3
>>> measured_value("O[C@H](COc1ccc(C(F)(F)F)cc1)CN1CCC(N2CCCC2)CC1")
8.45
>>> measured_value("CC(C)c1cc(CNC(=O)CN2CCN(C[C@@H](O)COc3ccc(C(F)(F)F)cc3)CC2)nn1-c1ccccc1")
79
>>> measured_value("CC(C)Cc1cc(CNC(=O)CN2CCN(C[C@H](O)COc3ccc(C(F)(F)F)cc3)CC2)nn1-c1ccc(F)cc1")
74.1
>>> measured_value("O[C@H](COc1ccc(F)cc1)CN1CCC(N2CCCCC2)CC1")
6.37
>>> measured_value("CC(C)Cc1cc(CNC(=O)CN2CCN(C[C@@H](O)COc3ccc(C(F)(F)F)cc3)CC2)nn1-c1cc(Cl)cc(Cl)c1")
73.5
>>> measured_value("O=C(CN1CCN(C[C@@H](O)COc2ccc(C(F)(F)F)cc2)CC1)NCc1cc(C2CC2)n(-c2ccccc2)n1")
74.3
>>> measured_value("OC(COc1ccc(F)cc1)CN1CCN(Cc2nccn2Cc2ccccc2)CC1 (stereo in doubt)")
39.9
>>> measured_value("CC(C)Cc1cc(CNC(=O)CN2CCN(C[C@@H](O)COc3ccc(F)cc3)CC2)nn1-c1cc(Cl)cc(Cl)c1")
63.4
>>> measured_value("O[C@H](COc1ccc(F)cc1)CN1CCC(O)(c2ccccc2)CC1")
35.4
>>> measured_value("Cc1ccc(F)cc1-n1nc(CNC(=O)CN2CCN(C[C@@H](O)COc3ccc(F)cc3)CC2)cc1CC(C)C")
77.8
>>> measured_value("Cc1ccccc1-n1nc(CNC(=O)CN2CCN(C[C@H](O)COc3ccc(F)cc3)CC2)cc1CC(C)C")
74.7
>>> measured_value("O[C@@H](COc1ccc(C(F)(F)F)cc1)CN1CCC(O)(c2ccccc2)CC1")
46.1
>>> measured_value("CC(C)Cc1cc(CNC(=O)CN2CCN(C[C@H](O)COc3ccc(F)cc3)CC2)nn1-c1cc(Cl)cc(Cl)c1")
60
>>> measured_value("CC(C)Cc1cc(CNC(=O)CN2CCN(C[C@H](O)COc3ccc(F)cc3)CC2)nn1-c1ccc(F)cc1")
73.2
>>> measured_value("O[C@H](COc1ccc(F)cc1)CN1CCC(N2CCOCC2)CC1")
9.33
>>> measured_value("CC(C)Cc1cc(CNC(=O)CN2CCN(C[C@@H](O)COc3ccc(C(F)(F)F)cc3)CC2)nn1-c1ccccc1")
67
>>> measured_value("Cc1ccc(CNC(=O)CN2CCN(C[C@H](O)COc3ccc(C(F)(F)F)cc3)CC2)cc1")
48.8
>>> measured_value("O=C(CN1CCN(C[C@@H](O)COc2ccccc2)CC1)NCc1ccccc1")
21.4
>>> measured_value("O[C@@H](COc1ccc(F)cc1)CN1CCC(F)(F)CC1")
37.6
>>> measured_value("O[C@@H](COc1ccc(F)cc1)CN1CCC(O)(c2ccccc2)CC1")
16
>>> measured_value("Cc1ccccc1-n1nc(CNC(=O)CN2CCN(C[C@H](O)COc3ccc(C(F)(F)F)cc3)CC2)cc1CC(C)C")
79.2
